Measured values drawn from ChEMBL document CHEMBL1146317 for this set.

species on record: Rattus norvegicus; experiment: Inhibition of testoterone-induced prostate weight in castrated immature Sprague-Dawley rat at 2 mg/day relative to control; format: functional, Prostate gland
parameter.measured: Inhibition (%)
Give a bare numeral; the unit % is implied.

Below: 5 compounds and their reported Inhibition.
Cc1cccc(Cn2c(CC(F)(F)F)nc3cc(Cl)c(Cl)cc32)c1
31
Fc1cccc(OCCn2c(CC(F)(F)F)nc3cc(Cl)c(Cl)cc32)c1
22
O=C(Cn1c(CC(F)(F)F)nc2cc(Cl)c(Cl)cc21)c1cccc([N+](=O)[O-])c1
14
O=C(Cn1c(CC(F)(F)F)nc2cc(Cl)c(Cl)cc21)c1ccc([N+](=O)[O-])cc1
71
Fc1ccccc1Cn1c(CC(F)(F)F)nc2cc(Cl)c(Cl)cc21
77

Data request, read-out Inhibition, for `FC(F)(F)Cc1nc2cc(Cl)c(Cl)cc2[nH]1`
90

Data request, read-out Inhibition, for `OC(O)(c1nc2cc(Cl)c(Cl)cc2n1Cc1ccccc1)C(F)(F)F`
85

Data request, read-out Inhibition, for `FC(F)(F)Cc1nc2cc(Cl)c(Cl)cc2n1Cc1ccc(Cl)cc1`
77
